# Tested on: RPMI-8226
# protocolSummary: Cytotoxicity against human RPMI8226 cells after 24 hrs by SRB assay
# Assay type: functional
# conditionsUsed: RPMI-8226, 24 h
readoutKind: TGI (µM)
Reply with just the number (in µM).

## Task Find the recorded TGI belonging to "O=C(/C=C/c1cc2ccccc2[nH]c1=O)c1ccc(Cl)cc1" and report it.
## Result 16.1

## Task Value lookup for TGI; key = "O=C(/C=C/c1cc2ccccc2[nH]c1=O)c1ccc(O)cc1"
## Result 24.8

====

# Test system: BT-549
# protocolSummary: Cytotoxicity against human BT549 cells after 24 hrs by SRB assay
# Assay type: functional
# conditionsUsed: BT-549, 24 h
readoutKind: GI50 (nM)
Could you give me the number in nM? Just the number is fine.

## Task State the recorded GI50 for this entry: "O=C(/C=C/c1cc2ccccc2[nH]c1=O)c1ccc(Cl)cc1"
## Result 3860

## Task Which GI50 value is on record for "O=C(/C=C/c1cc2ccccc2[nH]c1=O)/C=C/c1cc2ccccc2[nH]c1=O" ?
## Result 1900

## Task State the recorded GI50 for this entry: "COc1ccc(C(=O)/C=C/c2cc3ccccc3[nH]c2=O)cc1"
## Result 2700

## Task GI50 lookup needed for "O=C(/C=C/c1cc2ccccc2[nH]c1=O)c1ccc(O)cc1" , thanks.
## Result 1950

====

# Tested on: T47D
# protocolSummary: Cytotoxicity against human T47D cells after 24 hrs by SRB assay
# Format: cell-based
Consider the following molecules; for each one, report its LC50.

## Task # lookup: LC50 of "O=C(/C=C/c1cc2ccccc2[nH]c1=O)c1ccc(Cl)cc1"
## Result > 100 µM

## Task I would be grateful if you could share the reported LC50 for "O=C(/C=C/c1cc2ccccc2[nH]c1=O)/C=C/c1cc2ccccc2[nH]c1=O" .
## Result > 100 µM

## Task For the molecule "COc1ccc(C(=O)/C=C/c2cc3ccccc3[nH]c2=O)cc1" , what LC50 is on record?
## Result > 100 µM

## Task Which LC50 reading was recorded for the molecule "O=C(/C=C/c1cc2ccccc2[nH]c1=O)c1ccc(O)cc1" ?
## Result 79.6 µM

====

# Tested on: SW-620
# protocolSummary: Cytotoxicity against human SW620 cells after 24 hrs by SRB assay
# Format: functional
# conditionsUsed: SW-620, 24 h
readoutKind: TGI (µM)
# unit: µM | format: bare number

## Task Which TGI is reported for this molecule? "O=C(/C=C/c1cc2ccccc2[nH]c1=O)c1ccc(Cl)cc1"
## Result 12.1

## Task Bench note: what TGI did "COc1ccc(C(=O)/C=C/c2cc3ccccc3[nH]c2=O)cc1" show?
## Result 8.89

## Task Reported TGI for "O=C(/C=C/c1cc2ccccc2[nH]c1=O)/C=C/c1cc2ccccc2[nH]c1=O" : what is it?
## Result 3.92

## Task Param item = "O=C(/C=C/c1cc2ccccc2[nH]c1=O)c1ccc(O)cc1" ; retrieve measured TGI.
## Result 4.45

====

# System: TK-10
# protocolSummary: Cytotoxicity against human TK10 cells after 24 hrs by SRB assay
# Type: cell-based
# conditionsUsed: tk-10, 24 h
readoutKind: LC50

## Task Looking for the measured LC50 of "COc1ccc(C(=O)/C=C/c2cc3ccccc3[nH]c2=O)cc1" , can you help?
## Result > 100 µM

## Task Entry "O=C(/C=C/c1cc2ccccc2[nH]c1=O)c1ccc(Cl)cc1" : reported LC50 = ?
## Result 75.8 µM

## Task Can you share its LC50? I mean this molecule: "O=C(/C=C/c1cc2ccccc2[nH]c1=O)/C=C/c1cc2ccccc2[nH]c1=O"
## Result > 100 µM

## Task Can you share its LC50? I mean this molecule: "O=C(/C=C/c1cc2ccccc2[nH]c1=O)c1ccc(O)cc1"
## Result 34.6 µM

====

I'd appreciate it if you could supply LC50 values for the items below.
# Tested on: SF-539
# protocolSummary: Cytotoxicity against human SF539 cells after 24 hrs by SRB assay
# Assay type: cell-based
# conditionsUsed: sf-539, 24 h
Report as a plain number; the unit µM is understood.

## Task Quick one: LC50 of "O=C(/C=C/c1cc2ccccc2[nH]c1=O)c1ccc(Cl)cc1" ?
## Result 74.2

## Task Name the recorded LC50 for "O=C(/C=C/c1cc2ccccc2[nH]c1=O)c1ccc(O)cc1" .
## Result 61.674

## Task Reported LC50, molecule "COc1ccc(C(=O)/C=C/c2cc3ccccc3[nH]c2=O)cc1" : ____
## Result 45.5

====

# System: SK-MEL-2
# protocolSummary: Cytotoxicity against human SK-MEL-2 cells after 24 hrs by SRB assay
# Assay type: functional
# conditionsUsed: SK-MEL-2, 24 h
readoutKind: TGI (µM)
Lab book: enter the figure in µM, no units written.

## Task Returns the measured TGI for the input compound. Input: "O=C(/C=C/c1cc2ccccc2[nH]c1=O)c1ccc(O)cc1"
## Result 13.6

## Task # input compound: "O=C(/C=C/c1cc2ccccc2[nH]c1=O)c1ccc(Cl)cc1" ; wanted: its TGI
## Result 25.7

## Task Would you kindly share the measured TGI for "COc1ccc(C(=O)/C=C/c2cc3ccccc3[nH]c2=O)cc1" ?
## Result 40.1

====

# System: KM12
# protocolSummary: Cytotoxicity against human KM12 cells after 24 hrs by SRB assay
# Assay type: cell-based
# conditionsUsed: km12, 24 h
readoutKind: LC50 (µM)
The answer is to be given in µM; state only the numeric part.

## Task Reported LC50 for KM12, given "O=C(/C=C/c1cc2ccccc2[nH]c1=O)/C=C/c1cc2ccccc2[nH]c1=O" ?
## Result 5.12

## Task What LC50 appears in the records for this molecule with KM12? "O=C(/C=C/c1cc2ccccc2[nH]c1=O)c1ccc(O)cc1"
## Result 15.4

## Task Give LC50 (KM12) of the following molecule: "COc1ccc(C(=O)/C=C/c2cc3ccccc3[nH]c2=O)cc1"
## Result 26.9

## Task Param readout= LC50; system= KM12; entry= "O=C(/C=C/c1cc2ccccc2[nH]c1=O)c1ccc(Cl)cc1" ; returns value.
## Result 98.9

====

# Tested on: SN12C
# protocolSummary: Cytotoxicity against human SN12C cells after 24 hrs by SRB assay
# Type: cell-based
Hi there, I'd appreciate the recorded LC50 for every entry that follows.

## Task What value of LC50 has been reported for the following compound? "COc1ccc(C(=O)/C=C/c2cc3ccccc3[nH]c2=O)cc1"
## Result > 100 µM

## Task Can you look up the measured LC50 of "O=C(/C=C/c1cc2ccccc2[nH]c1=O)c1ccc(O)cc1" for me?
## Result > 100 µM

## Task Recorded LC50 for "O=C(/C=C/c1cc2ccccc2[nH]c1=O)/C=C/c1cc2ccccc2[nH]c1=O" , please?
## Result > 100 µM

## Task Name the reported LC50 value associated with the compound "O=C(/C=C/c1cc2ccccc2[nH]c1=O)c1ccc(Cl)cc1"
## Result > 100 µM

====

Consider the following molecules; for each one, report its LC50.
# Test system: ACHN
# protocolSummary: Cytotoxicity against human ACHN cells after 24 hrs by SRB assay
# Type: cell-based
Record the value in µM, omitting the unit from your answer.

## Task Fill blank: measured LC50 of the molecule "COc1ccc(C(=O)/C=C/c2cc3ccccc3[nH]c2=O)cc1" is ____.
## Result 57

## Task Requested field: LC50. Item: "O=C(/C=C/c1cc2ccccc2[nH]c1=O)c1ccc(Cl)cc1"
## Result 90.6

## Task Name the recorded LC50 for "O=C(/C=C/c1cc2ccccc2[nH]c1=O)c1ccc(O)cc1" .
## Result 34

====

Answer each item with its documented LC50.
# Tested on: RXF 393
# protocolSummary: Cytotoxicity against human RXF393 cells after 24 hrs by SRB assay
# Format: cell-based
# conditionsUsed: rxf 393, 24 h
Kindly answer with a numeric value in µM, unit omitted.

## Task Any idea what LC50 was measured for "O=C(/C=C/c1cc2ccccc2[nH]c1=O)/C=C/c1cc2ccccc2[nH]c1=O" ?
## Result 7.73

## Task Find the recorded LC50 belonging to "O=C(/C=C/c1cc2ccccc2[nH]c1=O)c1ccc(O)cc1" and report it.
## Result 6.33

## Task Sample "COc1ccc(C(=O)/C=C/c2cc3ccccc3[nH]c2=O)cc1" — what was its LC50?
## Result 33.5

====

# Test system: OVCAR-8
# protocolSummary: Cytotoxicity against human OVCAR8 cells after 24 hrs by SRB assay
# Assay type: cell-based
# conditionsUsed: ovcar-8, 24 h
Would you kindly list LC50 for each of these molecules?

## Task // LC50 lookup, key: "COc1ccc(C(=O)/C=C/c2cc3ccccc3[nH]c2=O)cc1"
## Result > 100 µM

## Task Using the record for "O=C(/C=C/c1cc2ccccc2[nH]c1=O)c1ccc(O)cc1" , report its LC50.
## Result > 100 µM

## Task Name the recorded LC50 for "O=C(/C=C/c1cc2ccccc2[nH]c1=O)c1ccc(Cl)cc1" .
## Result 88.4 µM

## Task Would you mind telling me what LC50 value was observed for "O=C(/C=C/c1cc2ccccc2[nH]c1=O)/C=C/c1cc2ccccc2[nH]c1=O" ?
## Result > 100 µM
